- Tested on: Brain
- test.protocol: Total drug level in Sprague-Dawley rat brain at 0.1 mg/kg, sc
- Type: ADME, organism-based
- assay.context: in vivo, read-out: Drug uptake
value.type: concentration

INSERT INTO assay_data (smiles_record, value_type, result) VALUES
  ('O=C1N[C@H](c2cncc(C#Cc3ccccc3)c2)[C@@H](c2cc(F)ccc2F)O1', 'concentration', '34 nM');

* * *

- test.protocol: Volume of distribution at steady state in rat at 1 mg/kg, iv
- Assay type: ADME, organism-based
- assay.context: in vivo, read-out: Vdss
value.type: Vd (L/kg)

INSERT INTO measurements (smiles_record, value_type, unit_descriptor, number) VALUES
  ('O=C1N[C@H](c2cncc(C#Cc3ccccc3)c2)[C@@H](c2cc(F)ccc2F)O1', 'Vd', 'L/kg', 1.8);

Numbers sourced from ChEMBL document CHEMBL3804767.
